# Test system: glutathione (GSH)
# Assay Name: Reactivity Profiling with Glutathione (GSH), half-life by HPLC
# Study Conditions: 5 mM glutathione (GSH) in IMDM with 10% FBS
Measure: half-life at 25 μM

Here's what some known entries look like.
INSERT INTO results (compound, result_value) VALUES
  ('CCOc1cc(C(=O)O)ccc1N(Cc1cc(C2CC2)cc(C(C)(C)C)c1)C(=O)CN(Cc1cnccc1Cl)S(=O)(=O)c1c(F)c(F)c(F)c(F)c1F [Compound 1277]', '0.00167 to 2.37 h'),
  ('COc1cc(C(=O)O)ccc1N(Cc1cc(C2CC2)cc(C2CC2)c1)C(=O)CN(Cc1c(F)cc(F)cc1F)S(=O)(=O)c1c(F)c(F)c(F)c(F)c1F [Compound 1148]', '2.37 to 4.12 h'),
  ('O=C(O)c1ccc(N(Cc2cc(C3CC3)cc(N3CCCC3)c2)C(=O)CN(Cc2cnccc2C(F)(F)F)S(=O)(=O)c2c(F)c(F)c(F)c(F)c2F)c(OC2CCCC2)c1 [Compound 1209]', '9.23 to 1670 h'),
  ('Cc1cc(C(=O)O)ccc1N(Cc1cc(C2CC2)cc(C(C)(C)C)c1)C(=O)CN(Cc1ccccc1F)S(=O)(=O)c1c(F)c(F)c(F)c(F)c1F [Compound 1088]', '2.37 to 4.12 h'),
  ('Cc1cc(C(=O)O)cc(C)c1N(Cc1cc(C2CC2)cc(C2CC2)c1)C(=O)CN(Cc1c(F)cc(F)cc1F)S(=O)(=O)c1c(F)c(F)c(F)c(F)c1F [Compound 1203]', '4.12 to 9.23 h');

Form: Entry = CN(C)c1cc(C(=O)O)c(F)cc1N(Cc1cc(C2CC2)cc(C(C)(C)C)c1)C(=O)CN(Cc1c(F)cc(F)cc1F)S(=O)(=O)c1c(F)c(F)c(F)c(F)c1F [Compound 1124] | System = glutathione (GSH) | half-life at 25 μM = ____ 4.12 to 9.23 h

# query: half-life at 25 μM | item O=C(O)c1ccc(N(Cc2cc(C3CC3)cc(N3CCCC3)c2)C(=O)CN(Cc2ccc(F)cc2Cl)S(=O)(=O)c2c(F)c(F)c(F)c(F)c2F)c(C2CC2)c1 [Compound 1200] | system: glutathione (GSH) 9.23 to 1670 h

# returns recorded half-life at 25 μM (system: glutathione (GSH)) for COc1cc(C(=O)O)ccc1N(Cc1cc(C2CC2)cc(C(C)(C)C)c1)C(=O)C[C@@H](C)N(Cc1ccccc1F)S(=O)(=O)c1c(F)c(F)c(F)c(F)c1F [Compound 1073] 0.00167 to 2.37 h

# get_value(readout= half-life at 25 μM, system= glutathione (GSH)) for CCOc1cc(C(=O)O)ccc1N(Cc1cc(C2CC2)cc(C2CC2)c1)C(=O)CN(Cc1ccccc1Cl)S(=O)(=O)c1c(F)c(F)c(F)c(F)c1F [Compound 1278] 2.37 to 4.12 h

Which measured half-life at 25 μM belongs to O=C(O)c1ccc(N(Cc2cc(C3CC3)cc(C3CC3)c2)C(=O)CN(Cc2ccc(F)cc2Cl)S(=O)(=O)c2c(F)c(F)c(F)c(F)c2F)c(OCC2COC2)c1 [Compound 1257] , tested on glutathione (GSH)? 0.00167 to 2.37 h

FYI, the data here is from patent US20230159445A1.
